List of PKC-theta/PKC-delta selectivity values.
# measuredTarget: Recombinant human PKC-delta (His-tagged 345-676) (Homo sapiens, UniProt Q05655)
# Construct: PKC-delta (His-tagged 345-676); His
# Sequence (Q05655 345-676): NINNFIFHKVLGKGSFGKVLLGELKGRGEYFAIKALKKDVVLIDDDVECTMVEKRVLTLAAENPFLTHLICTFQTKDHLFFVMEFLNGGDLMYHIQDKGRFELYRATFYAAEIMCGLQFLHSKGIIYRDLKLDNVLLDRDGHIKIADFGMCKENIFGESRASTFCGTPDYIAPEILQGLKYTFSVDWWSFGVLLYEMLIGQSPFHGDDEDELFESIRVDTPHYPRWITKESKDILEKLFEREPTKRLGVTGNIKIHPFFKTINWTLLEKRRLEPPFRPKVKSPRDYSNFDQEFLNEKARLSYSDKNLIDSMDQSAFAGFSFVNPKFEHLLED
# testDescription: PKC-delta inhibition assay (HTRF KinEASE kit)
# Type: biochemical
# assaySetup: ratio, PKC-theta vs PKC-delta HTRF

Previously resolved entries follow.
C[C@@H]1CNCCN1c1cc(C(F)(F)F)cc(-c2ccnc3c2C(C)(C)C(=O)N3)n1 [Example 102]    14
C[C@H]1CNCCCN1c1cc(C(F)(F)F)cc(-c2ccnc3c2C(C)(C)C(=O)N3)n1 [Example 189]    16
CC1(O)C(=O)Nc2nccc(-c3cc(N4CCNCC4)cc(C(F)(F)F)c3)c21 (centres unmarked) [Example 56]    14
C[C@@H]1CNCCCN1c1cc(C(F)(F)F)cc(-c2ccnc3c2C(C)(C)C(=O)N3)n1 [Example 190]    32
CC1C(=O)Nc2nccc(-c3cccc(N4CCNCC4)c3)c21 (centres unmarked) [Example 5]    4
O=C1Nc2nccc(-c3cc(F)cc(N4CCNCC4)c3)c2C12CCCC2 [Example 36]    1

Qu. Dear colleague, I am looking for the recorded PKC-theta/PKC-delta selectivity of the following compound: CC1(F)CNCCN(c2cc(Cl)cc(-c3ccnc4c3[C@](C)(O)C(=O)N4)n2)C1 (single isomer, unassigned) [Example 92]
Ans. 6

Qu. Next compound up: CO[C@]1(C)C(=O)Nc2nccc(-c3cc(C(F)(F)F)cc(N4CCNC[C@H]4C)n3)c21 (single isomer, unassigned) [Example 176]
Ans. 20

----------
# measuredTarget: Recombinant human PKC-theta (His-tagged 362-706) (Homo sapiens, UniProt Q04759)
# Construct: Recombinant human PKC-theta (His-tagged 362-706); His
# Sequence (Q04759 362-706): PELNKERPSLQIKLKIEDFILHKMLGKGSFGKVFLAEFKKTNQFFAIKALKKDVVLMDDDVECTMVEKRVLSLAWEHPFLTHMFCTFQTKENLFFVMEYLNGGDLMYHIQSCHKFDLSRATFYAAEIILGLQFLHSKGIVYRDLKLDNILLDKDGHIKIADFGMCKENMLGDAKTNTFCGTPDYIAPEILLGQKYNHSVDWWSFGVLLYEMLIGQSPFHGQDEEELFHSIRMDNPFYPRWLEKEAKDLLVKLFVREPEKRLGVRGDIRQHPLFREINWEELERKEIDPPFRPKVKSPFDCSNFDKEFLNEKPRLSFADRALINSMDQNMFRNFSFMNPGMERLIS
# testDescription: PKC-theta inhibition assay (HTRF KinEASE kit)
# Format: biochemical
# assaySetup: ATP 6.5 μM; STK substrate 525 nM; read-out: PKC-theta HTRF pIC50 (converted)
measurementType: IC50 (nM)
Field format: number, assumed nM, no unit text.

Qu. For the record CC1C(=O)Nc2nccc(-c3cccc(C(=O)N4CCNCC4)c3)c21 (stereo not drawn) , what value of IC50 is listed for Recombinant human PKC-theta (His-tagged 362-706) (Homo sapiens, UniProt Q04759)?
Ans. 1000

Qu. Again, but for CC[C@]1(C)C(=O)Nc2nccc(-c3cc(Cl)cc(N4CCN[C@@H](C)C4)n3)c21 (single isomer, unassigned)
Ans. 2.51

Qu. Same question for CC[C@@]1(C)C(=O)Nc2nccc(-c3cc(Cl)cc(N4CCNC[C@H]4C)n3)c21 (single isomer, unassigned) please.
Ans. 2

Qu. Next compound: COc1cc(-c2ccnc3[nH]c(=O)[nH]c23)cc(N2CCNCC2)c1
Ans. 2000

Qu. Please give the result for CC1(C)C(=O)Nc2nccc(-c3cc(C(F)(F)F)cc(N4CC5CC4CN5)n3)c21 (stereo not drawn) too.
Ans. 20

Qu. Also check CCC1C(=O)Nc2nccc(-c3cccc(N4CCNCC4)c3)c21 (stereo not drawn)
Ans. 316

Qu. Same question, C[C@@H]1CN(c2cc(C(F)(F)F)cc(-c3ccnc4c3C(C)(C)C(=O)N4)n2)[C@@H](C)CN1 this time
Ans. 12.6

Qu. Quick one: C[C@@]1(O)C(=O)Nc2nccc(-c3cc(C(F)(F)F)cc(N4CCNC(CF)C4)n3)c21 (single isomer, unassigned)
Ans. 3.98

Qu. Record: CO[C@]1(C)C(=O)Nc2nccc(-c3cc(C(F)(F)F)cc(N4CCNC[C@H]4C)n3)c21 (single isomer, unassigned) [Example 176]
Ans. 12.6

Qu. Cool, now CC[C@H]1CN(c2ccc(Cl)c(-c3ccnc4c3C(O)(CC)C(=O)N4)n2)CCN1 (stereo partly drawn)
Ans. 100

Qu. And what about the compound CC[C@H]1CN(c2cccc(-c3ccnc4c3C(C)(CC)C(=O)N4)n2)CCN1 (stereo partly drawn) ?
Ans. 20

Qu. Try this compound next: C[C@H]1CCNCCN1c1cc(C(F)(F)F)cc(-c2ccnc3c2C(C)(C)C(=O)N3)n1
Ans. 5.01

Qu. And the next one, CO[C@]1(C)C(=O)Nc2nccc(-c3cc(Cl)cc(N4CCNC[C@H]4C)n3)c21 (single isomer, unassigned) ?
Ans. 10

Qu. Consider next the compound CC[C@H]1CN(c2cc(Cl)cc(-c3ccnc4c3C(O)(CC)C(=O)N4)n2)CCN1 (stereo partly drawn) in the same way.
Ans. 3.98

Qu. Next entry: CC1(F)CNCCN(c2cc(Cl)cc(-c3ccnc4c3[C@](C)(O)C(=O)N4)n2)C1 (single isomer, unassigned)
Ans. 7.94
